biological target: Protein translocase subunit SecA (Escherichia coli (strain K12)); assay: Assay to Identify E. coli SecA ATPase Inhibitors; assay type: functional; set-up: scale not given: direction of the effect not stated beside the values; conditions: 30 µM
Measured potencies and affinities stand elsewhere.
recorded metric: Percent Effect (%)
Kindly provide the numeric value in % only, without the unit symbol.

Quick one: Percent Effect of CCc1nc(C)c(C(=O)NCCNc2cnccn2)s1 ? -1.34

Quick one: Percent Effect of CCNC(=O)c1ccc(CNCc2c(C)nn(C)c2N(C)C)cc1 ? -4.63

// returns reported Percent Effect for input Cc1cc(CN2Cc3ccccc3CC2c2nnc(C)o2)on1 (configuration not stated) -3.58

Given the compound O=S(=O)(c1ccccc1)N1CCCCC1c1cc[nH]n1 (configuration not stated) , what is its reported Percent Effect? -1.23

I have this compound here, Cc1ccc(C(=O)NC2CCN(C(=O)Nc3ccccn3)CC2)o1 , and I need its recorded Percent Effect. -3.11

Please look up its Percent Effect: CC(O)CC(C)(C)CNC(=O)NCc1cccc(-n2ccnc2)c1 (configuration not stated) -3.71

Dear colleague, I am looking for the recorded Percent Effect of the following compound: O=C1CCCc2nccc(-c3ccccc3)c21 3.95

// Percent Effect lookup, key: CCn1cc(N2Cc3nc(N4CCOCC4)ncc3C2=O)cn1 -4.68

Which Percent Effect value is on record for CN(C)Cc1nc(C(C)(C)NC(=O)C2CC(=O)N(CC3CC3)C2)no1 (configuration not stated) ? -8.14

Name the reported Percent Effect value associated with the compound CN(Cc1nccn1CC(F)(F)F)C(=O)c1ccc(F)cc1F -4.89

Need Percent Effect, item CC(=O)N1CCC2(CCCN(C(=O)c3ccccc3)C2)C1 (configuration not stated) -2.42

# query: Percent Effect of entry CN(C)C(CNC(=O)NCCc1cccc(O)c1)c1ccco1 (configuration not stated) -1.55
